Molecular target: ZFP SBS#587 (synthetic)
Sequence (chain, as listed by the source): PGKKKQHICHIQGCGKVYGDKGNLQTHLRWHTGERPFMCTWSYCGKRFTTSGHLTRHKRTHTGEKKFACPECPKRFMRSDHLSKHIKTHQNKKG
Test: EMSA
Details: tags: MBP fusion
quantity_name: pKd
Give bare numbers, as −log10 of the molar value.

Entry GGGGGTTACG (dsDNA) DNA 1: GGGGGTTACG DNA 2: CGTAACCCCC , pKd reported as 6.30
